assay: Apparent inhibition constant against peptidyl prolyl isomerase (Ki app)
Entries and their Ki
Quick note: give the figure in µM, leave out the unit.

Look over these answered cases.
>  <Compound>
O=C(C(=O)N1CCCCC1C(=O)N(CCCc1ccccc1)Cc1ccccc1)C1CCCCC1 (centres undefined)

>  <Outcome Measure>
Ki

>  <Units Of Measure>
µM

>  <Numeric Readout>
20

$$$$
>  <Compound>
O=C(C(=O)N1CCCC[C@@H]1C(=O)NC(CO)Cc1ccccc1)C1CCCCC1 (some centres undefined)

>  <Outcome Measure>
Ki

>  <Units Of Measure>
µM

>  <Numeric Readout>
60

$$$$
>  <Compound>
CCOC(=O)C(CCc1ccccc1)NC(=O)[C@H]1CCCCN1C(=O)C(=O)C1CCCCC1 (some centres undefined)

>  <Outcome Measure>
Ki

>  <Units Of Measure>
µM

>  <Numeric Readout>
1.9

$$$$

Query compound follows.
q: Tell me Ki reported for O=C(C(=O)N1CCCCC1C(=O)NCCc1ccccc1)C1CCCCC1 (centres undefined)
a: 3

---

Attribute: Ki
test: Inhibition constant against peptidyl prolyl isomerase; details: read-out: Ki app
# output: bare number, implied unit µM

>  <Compound>
CCC(C)(C)C(=O)C(=O)N1CCCC[C@H]1C(=O)OC(CCc1ccccc1)C1CCCCC1 (stereo partly drawn)

>  <Outcome Measure>
Ki

>  <Numeric Readout>
0.3

$$$$
>  <Compound>
CCOC(=O)C1CCCCN1C(=O)C(=O)C1(OC)CCCCC1 (stereo not drawn)

>  <Outcome Measure>
Ki

>  <Numeric Readout>
1

$$$$
>  <Compound>
CCOC(=O)C1CCCCN1C(=O)C(=O)CC(C)C (stereo not drawn)

>  <Outcome Measure>
Ki

>  <Numeric Readout>
2

$$$$
>  <Compound>
CCC(C)(C)C(=O)C(=O)N1CCCCC1C(=O)OCCC(c1ccccc1)c1ccccc1 (stereo not drawn)

>  <Outcome Measure>
Ki

>  <Numeric Readout>
0.027

$$$$
>  <Compound>
CCOC(=O)C1CCCCN1C(=S)C(=O)CC(C)C (stereo not drawn)

>  <Outcome Measure>
Ki

>  <Numeric Readout>
4.3

$$$$
>  <Compound>
O=CC1CCCCN1C(=O)C(=O)C1CCCCC1 (stereo in doubt; 35)

>  <Outcome Measure>
Ki

>  <Numeric Readout>
0.25

$$$$
>  <Compound>
COc1cc(CCCOC(=O)[C@@H]2CCCCN2S(=O)(=O)Cc2ccccc2)cc(OC)c1OC

>  <Outcome Measure>
Ki

>  <Numeric Readout>
0.23

$$$$
>  <Compound>
CCC(C)(C)C(=O)C(=O)N1CCCC[C@@H]1C(=O)OC(CCC1CCCCC1)c1ccccc1 (stereo partly drawn)

>  <Outcome Measure>
Ki

>  <Numeric Readout>
0.01

$$$$
>  <Compound>
CCC(C)(C)C(=O)C(=O)N1CCCCC1C(=O)OCCc1ccccc1 (stereo not drawn)

>  <Outcome Measure>
Ki

>  <Numeric Readout>
0.34

$$$$
>  <Compound>
O=CC1CCCCN1C(=O)C(=O)C1CCCCC1 (stereo in doubt; 59)

>  <Outcome Measure>
Ki

>  <Numeric Readout>
0.02

$$$$

q: Provide one value: measured Ki of CCC(C)(C)C(=O)C(=O)N1CCCCC1C(=O)OCCCc1cc(OC)c(OC)c(OC)c1 (stereo not drawn)
a: 0.012

q: State, in one line, measured Ki of CCOC(=O)C1CCCN(C(=O)C(=O)C2(OC)CCCCO2)C1 (stereo not drawn)
a: 180

---

experiment: Apparent inhibition constant against peptidyl prolyl isomerase; range=0.004-0.010; conditions: read-out: Ki app
Outcome Measure: Ki

q: State its Ki for this compound: CCC(C)(C)C(=O)C(=O)N1CCCC[C@@H]1C(=O)OC(CCc1ccccc1)c1ccc2ccccc2c1 (stereo partly specified)
a: 4 nM

---

test: Apparent inhibition constant against peptidyl prolyl isomerase; range=0.3-0.6; details: read-out: Ki app
Outcome Measure: Ki (nM)
Field format: number, assumed nM, no unit text.

q: Fill in Ki for record CCC(C)(C)C(=O)C(=O)N1CCCC[C@H]1C(=O)OC(CCc1ccccc1)c1ccccc1 (stereo partly specified)
a: 300

---

assay: Apparent inhibition constant against peptidyl prolyl isomerase (Ki app); details: read-out: Ki app
Outcome Measure: pKi
Scale explanation: pKi corresponds to minus log10 of a concentration expressed in moles per litre.

q: Quickly give me recorded pKi for CCOC(=O)C1CCCCN1C(=O)C(=O)C1(O)CCCCO1 (stereo unspecified)
a: 5.15

---

experiment: Inhibition constant against peptidyl prolyl isomerase; conditions: read-out: Ki app
Outcome Measure: log10(Ki) (log10 of the value in nM)
Remember, log10 of Ki, in nM.

Consider the following illustrative entries.
>  <Compound>
CCOC(=O)[C@H]1CCCN1C(=O)C(=O)C1(OC)CCCCC1

>  <log10(Ki)>
5.78

$$$$
>  <Compound>
CCOC(=O)C1CCCCN1C(=O)C(=O)C(C)(C)COC(C)=O (stereo not given)

>  <log10(Ki)>
3.00

$$$$
>  <Compound>
CCOC(=O)CN(C)C(=O)C(=O)C1(OC)CCCCC1

>  <log10(Ki)>
4.36

$$$$
>  <Compound>
CCC(C)(C)C(=O)C(=O)N1CCCCC1C(=O)OCc1ccc2ccccc2c1 (stereo not given)

>  <log10(Ki)>
2.30

$$$$
>  <Compound>
CCC(C)(C)C(=O)C(=O)N1CCCC[C@@H]1C(=O)OC(CCc1ccc2c(c1)OCO2)c1ccccc1 (stereo not given in full)

>  <log10(Ki)>
0.95

$$$$
>  <Compound>
O=CC1CCCCN1C(=O)C(=O)C1CCCCC1 (stereo in doubt; 44)

>  <log10(Ki)>
2.30

$$$$
>  <Compound>
COc1cc(CC[C@@H](OC(=O)[C@@H]2CCCCN2C(=O)CC(C)(C)C)c2ccccc2)cc(OC)c1OC

>  <log10(Ki)>
2.30

$$$$
>  <Compound>
CCC(C)(C)C(=O)C(=O)N1CCCCC1C(=O)OC/C=C/c1ccc(OC)c(OC)c1 (stereo not given)

>  <log10(Ki)>
1.54

$$$$

q: Let me know recorded log10(Ki) for CCOC(=O)[C@H]1CCCCN1C(=O)C(=O)C1(OC)CCCCC1 , thanks.
a: 4.34

q: Determine from records and report log10(Ki) for O=C(C(=O)N1CCCCC1C(=O)OCc1ccccc1)C1CCCCC1 (stereo not given)
a: 2.60

---

assay: Apparent inhibition constant against peptidyl prolyl isomerase; range = 0.002-0.006; settings: read-out: Ki app
Outcome Measure: pKi
Quick note: pKi values are minus log10 of concentrations in mol/L.

q: Using known records, supply pKi for CCC(C)(C)C(=O)C(=O)N1CCCC[C@@H]1C(=O)OC(CCc1ccc(OC)c(OC)c1)c1ccccc1 (stereo partly specified)
a: 8.70

---

experiment: Inhibition constant against peptidyl prolyl isomerase; settings: read-out: Ki app
Outcome Measure: Ki (nM)
Give the number; nM is assumed, so skip it.

// worked examples, Ki included
>  <Compound>
CCOC(=O)C1CCCCN1C(=O)C(=O)C(C)(C)C (stereo not given)

>  <Numeric Readout>
2000

$$$$
>  <Compound>
C=CC(C)(C)C(CCc1ccccc1)OC(=O)[C@H]1CCCCN1C(=O)C(=O)C(C)(C)CC (stereo not given in full)

>  <Numeric Readout>
250

$$$$

The record that follows has no Ki shown yet.
q: Provide measured Ki value, entry: C/C(=C\c1ccccc1)COC(=O)C1CCCCN1C(=O)C(=O)C1CCCCC1 (stereo not given)
a: 300

---

experiment: Inhibition constant against peptidyl prolyl isomerase; conditions: read-out: Ki app
pKi: −log10 of the molar value.
Label scheme, based on pKi: Low (below 5), Medium (5 to below 7), High (7 or more)

>  <Compound>
CCC(C)(C)C(=O)C(=O)N1CCCCC1C(=O)OCc1cccc2ccccc12 (stereo unspecified)

>  <Assigned Category>
Medium

$$$$
>  <Compound>
CCOC(=O)C1CCCCN1C(=O)C(=O)C1(OC)CCCCO1 (stereo unspecified)

>  <Assigned Category>
Medium

$$$$
>  <Compound>
COC1(C(=O)C(=O)N2CCCCC2)CCCCO1 (stereo unspecified)

>  <Assigned Category>
Low

$$$$
>  <Compound>
CCOC(=O)C1CCCCN1NC(=O)C1CCCCC1 (stereo unspecified)

>  <Assigned Category>
Low

$$$$
>  <Compound>
CCOC(=O)C1CCCCN1C(=O)C(=O)C1CCCCC1 (stereo unspecified)

>  <Assigned Category>
Medium

$$$$

// next entry
q: Which pKi category applies to CCC(C)(C)C(=O)C(=O)N1CCCCC1C(=O)OCCCc1ccc(OCc2ccccc2)cc1 (stereo unspecified) here?
a: High

---

experiment: Inhibition constant against peptidyl prolyl isomerase; conditions: read-out: Ki app
As shown below, each of these compounds has a reported pKi value.
Note on pKi: it is the negative log10 of concentration, concentration in mol/L.

Below: 2 compounds and their reported pKi.
>  <Compound>
O=C(O[C@H](CCc1ccccc1)c1ccccc1)[C@@H]1CCCCN1S(=O)(=O)Cc1ccccc1

>  <Outcome Measure>
pKi

>  <Numeric Readout>
6.80

$$$$
>  <Compound>
CC(C)(CCC1CCCCC1)OC(=O)C1CCCCN1C(=O)C(=O)C1CCCCC1 (configuration not stated)

>  <Outcome Measure>
pKi

>  <Numeric Readout>
6.70

$$$$

q: Identify measured pKi corresponding to O=C(C(=O)N1CCCCC1C(=O)NCCCc1ccccc1)C1CCCCC1 (configuration not stated)
a: 6.00

q: Dear colleague, please send me the reported pKi for CCOC(=O)C1CCCCN1C(=O)C(=O)C1(O)CCCCC1 (configuration not stated) when you can.
a: 5.80

q: Find the measured pKi of CCCC(=O)C1CCCCN1C(=O)C(=O)C(C)(C)CC (configuration not stated) and report it.
a: 4.52

q: Tell me its pKi given CCC(C)(C)C(=O)C(=O)N1CCCCC1C(=O)OCCCc1ccc(OC)c(OC)c1 (configuration not stated) as the entry.
a: 7.70

q: Output pKi of CCC(C)(C)C(=O)C(=O)N1CCCCC1C(=O)OCCCC1CCCCC1 (configuration not stated)
a: 6.73
